System: MRC-5 cell line (diploid human embryonic lung fibroblast)
Experiment: Cytotoxicity on MRC-5 cells
Format: cell-based
Assay endpoint: CYT IC50

I'd like to know its CYT IC50. The compound in question is "CS(=O)(=O)c1ccc2nc(N(Cc3cccnc3)C(=O)c3ccc4ccccc4c3)sc2c1"
>14.21 µg/mL

# iterate: "CC(C)(C)n1ncc2c(=O)n(CCC(=O)NCc3ccccc3Cl)cnc21"
>11.64 µg/mL

# iterate: O=S(=O)(NCC(c1cccnc1)N1CCN(Cc2ccccc2)CC1)c1ccc(Cl)cc1 (centres unmarked)
>14.13 µg/mL

# iterate: "CN(C)CCN(C(=O)c1cccc(N2C(=O)CCC2=O)c1)c1nc2ccc(Br)cc2s1"
>16.14 µg/mL

# iterate: "COc1cccc2sc(Nc3nnc(-c4cccs4)o3)nc12"
1.83 µg/mL
